Target: SOS1:KRAS (G12C) interaction (Homo sapiens (Human), UniProt Q07889)
Sequence (Q07889 564-1049, stated change not applied): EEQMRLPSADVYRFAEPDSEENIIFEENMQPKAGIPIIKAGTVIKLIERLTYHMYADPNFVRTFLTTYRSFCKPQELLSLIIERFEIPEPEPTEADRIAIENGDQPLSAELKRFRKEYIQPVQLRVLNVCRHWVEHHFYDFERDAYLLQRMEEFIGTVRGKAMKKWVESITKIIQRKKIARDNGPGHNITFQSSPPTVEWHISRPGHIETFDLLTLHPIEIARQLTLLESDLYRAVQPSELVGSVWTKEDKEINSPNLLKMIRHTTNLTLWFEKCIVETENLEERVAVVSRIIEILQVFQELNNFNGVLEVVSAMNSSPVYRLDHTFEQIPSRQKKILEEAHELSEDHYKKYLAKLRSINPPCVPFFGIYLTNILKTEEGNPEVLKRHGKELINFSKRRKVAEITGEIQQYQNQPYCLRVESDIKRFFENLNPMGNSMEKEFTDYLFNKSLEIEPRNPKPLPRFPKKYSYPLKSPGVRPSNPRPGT
Assay: SOS1-KRas(G12C) FRET Assay
Settings: 0.5 nM His10-SOS1 (res. 564-1049), 2.5 nM GST-KRAS (res. 1-169, G12C); read-out: SOS-KRas(G12C) FRET IC50
parameter: IC50 (nM)

(P) Cc1c([C@@H](C)Nc2nn(C)c(=O)c3c(C#N)c(=O)n(C4CC4)cc23)cccc1C(F)(F)F [Example 10]
(Q) C[C@@H](Nc1nn(C)c(=O)c2cc(=O)n([C@H]3CCC(F)(F)C3)cc12)c1cccc(C(F)F)c1F (single isomer, unassigned) [Example 121]
(R) C[C@H](Nc1nn(C)c(=O)c2cc(=O)n(C3CC3)cc12)c1ccc2c(C#N)nn(C)c2c1 (single isomer, unassigned) [Example 26]
Ask | I would appreciate it if you could sort these 3 compounds by IC50, starting from the smallest number. Please list the labels according to the requested order.
Reply | Q, P, R
(Q: 125 nM, P: 2250 nM, R: 100000 nM)
